Taken from the supplement of paper PMC10567573.

B1: TRAF3IP2 (parent)
chain: KEHVPTWLQNTHVYSWPKNKKNIL

variants of: B1; assay: protein stability index of a GFP-peptide fusion (GPS, HEK-293T) (PSI 1-6); higher = more stable; conditions: c terminus: a fixed tail appended;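 further: lentivirally expressed fusions sorted by FACS into six bins by GFP to DsRed ratio, PSI derived from sequencing read proportions per bin multiplied by bin number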
Kindly state protein stability index for each of the entries shown.
// print number alone

-- ask GET /values?readout=protein stability index&item= N22P
-- reply 2.84

-- ask Entry to check: W16M
-- reply 2.75

-- ask Entry to check: L8P
-- reply 3.18

-- ask Entry to check: N19F
-- reply 2.02

-- ask Entry to check: P5I
-- reply 1

-- ask Entry to check: H3M
-- reply 2.46

-- ask Entry to check: T11W
-- reply 2.3

-- ask Entry to check: K21Y
-- reply 1.83

-- ask Entry to check: K1E
-- reply 3.06

-- ask Entry to check: T6W
-- reply 1.53

-- ask Entry to check: K20Q
-- reply 2.25

-- ask Entry to check: H3E
-- reply 2.51

-- ask Entry to check: N19Y
-- reply 2.03

-- ask Entry to check: Q9T
-- reply 2.8

-- ask Entry to check: L24R
-- reply 3.49

-- ask Entry to check: Y14M
-- reply 2.76

-- ask Entry to check: N22H
-- reply 2.08

-- ask Entry to check: S15I
-- reply 1.7

-- ask Entry to check: P5R
-- reply 1.95

-- ask Entry to check: L24M
-- reply 2.73

-- ask Entry to check: V13I
-- reply 2.51

-- ask Entry to check: W7D
-- reply 3.07
